Would you kindly list Ratio for each of these compounds?
test: Ratio of IC50 against V79 cells in the presence of air to that of nitrogen.; assay type: functional
Hey, just send me the number, nothing else.

Prompt: Consider the compound CCOC(=O)c1coc(-c2cn(C)c3c2C(=O)C(OC)=CC3=O)n1 and give its measured Ratio.
Response: 1.1

Prompt: Consider the compound Cc1csc(-c2cn(C)c3c2C(=O)C(=N)C=C3O)n1 and give its measured Ratio.
Response: 1.7

Prompt: Consider the compound Cn1cc(-c2csc(C(N)=O)n2)c2c1C(=O)C=C(N)C2=O and give its measured Ratio.
Response: 1.3

Prompt: Consider the compound COC1=CC(=O)c2c(c(-c3nc(C)cs3)cn2C)C1=O and give its measured Ratio.
Response: 1.5

Prompt: Consider the compound Cn1cc(-c2nc(C(N)=O)cs2)c2c1C(=O)C=C(N)C2=O and give its measured Ratio.
Response: 1.2

Prompt: Consider the compound CCOC(=O)c1nc(-c2cn(C)c3c2C(=O)C(OC)=CC3=O)cs1 and give its measured Ratio.
Response: 0.64

Prompt: Consider the compound CCOC(=O)c1csc(-c2cn(C)c3c2C(=O)C(OC)=CC3=O)n1 and give its measured Ratio.
Response: 1.2
